target: HLA-A*31:01; assay: IEDB peptide-MHC binding, purified MHC/direct/fluorescence; filed as Kd, often an IC50 or EC50 that approximates it; bounds were set here for any values at or beyond the usual limits of such assays; settings: source organism: SARS-CoV1
outcomeMeasure: pKd
When answering, recall that pKd equals minus log10 of the concentration in mol/L, and write that number alone.

According to the records, this sequence ATFSVPMEK displays pKd of 6.85

* * *

target: HLA-A*31:01; test: IEDB peptide-MHC binding, purified MHC/direct/fluorescence; filed as Kd, often an IC50 or EC50 that approximates it; bounds were set here for any values at or beyond the usual limits of such assays; settings: source organism: Mycobacterium tuberculosis variant bovis BCG str. Pasteur 1173P2
pKd: −log10 of the molar value.
outcomeMeasure: pKd

According to the records, this sequence IIRVTSELL displays pKd of ≤ 4.70

* * *

biological target: HLA-B*40:01; assay: IEDB peptide-MHC binding, purified MHC/direct/fluorescence; filed as Kd, often an IC50 or EC50 that approximates it; bounds were set here for any values at or beyond the usual limits of such assays; conditions: source organism: Clostridium botulinum
outcomeMeasure: Kd

Let me check: RVYINVVVK , system HLA-B*40:01, measured Kd is ≥ 20 µM

* * *

biological target: HLA-A*23:01; assay: IEDB peptide-MHC binding, purified MHC/direct/fluorescence; filed as Kd, often an IC50 or EC50 that approximates it; bounds were set here for any values at or beyond the usual limits of such assays; settings: source organism: Orthohantavirus hantanense
outcomeMeasure: pKd
When answering, recall that pKd equals minus log10 of the concentration in mol/L, and write that number alone.

According to the records, this sequence QWLIEPCKL displays pKd of 6.74

* * *

target: HLA-B*83:01; experiment: IEDB peptide-MHC binding, purified MHC/competitive/fluorescence; filed as Kd, often an IC50 or EC50 that approximates it; bounds were set here for any values at or beyond the usual limits of such assays; conditions: source organism: Mycobacterium tuberculosis str. Haarlem
pKd: −log10 of the molar value.
outcomeMeasure: pKd

According to the records, this sequence YTPEQWWPF displays pKd of ≤ 5.30

* * *

molecular target: HLA-B*18:01; experiment: IEDB peptide-MHC binding, purified MHC/direct/fluorescence; filed as Kd, often an IC50 or EC50 that approximates it; bounds were set here for any values at or beyond the usual limits of such assays; conditions: source organism: Entamoeba histolytica HM-1:IMSS
outcomeMeasure: Kd

According to the records, this sequence FIILSTGKY displays Kd of ≥ 20 µM

* * *

molecular target: HLA-A*26:01; assay: IEDB peptide-MHC binding, purified MHC/competitive/fluorescence; filed as Kd, often an IC50 or EC50 that approximates it; bounds were set here for any values at or beyond the usual limits of such assays; details: source organism: Orthohantavirus negraense
pKd: −log10 of the molar value.
outcomeMeasure: pKd

According to the records, this sequence SLLFREVWK displays pKd of ≤ 4.70

* * *

biological target: HLA-A*26:01; test: IEDB peptide-MHC binding, purified MHC/direct/fluorescence; filed as Kd, often an IC50 or EC50 that approximates it; bounds were set here for any values at or beyond the usual limits of such assays; settings: source organism: Yersinia enterocolitica
pKd: −log10 of the molar value.
outcomeMeasure: pKd

According to the records, this sequence GYGRVNAGK displays pKd of ≤ 4.70
